Reported melting point by item:

Fill in: melting point of CCS(=O)(=O)c1ccc(C2=C(c3ccc(S(C)(=O)=O)cc3)OC(C)(C)C2=O)cc1 is ___ 198 to 203 °C

Fill in: melting point of CC1(C(O)C(Cc2ccc(Cl)cc2)n2cncn2)COCOC1 (stereo not given) is ___ 152 to 154 °C

Fill in: melting point of FC(F)(F)Oc1cccc(Cn2cnc3c(-c4ccco4)ncnc32)c1 is ___ 133 to 135 °C

Fill in: melting point of Cc1cc(SC(C)C)c(NC(=O)CSc2nc3ccccc3o2)c(SC(C)C)n1 is ___ 151 to 152 °C

Fill in: melting point of Cc1ccc(OC2=C(Oc3ccc([N+](=O)[O-])cc3)C(F)(F)C(F)(F)C2(F)F)cc1 is ___ 72 to 76 °C

* * *

Reported melting point by item:

Consider the following illustrative entries.
{"compound": "COc1ccc(C2CN(O)C3(C)CCCCC23)cc1OC (centres undefined)", "melting point": "147 to 149 °C"}
{"compound": "O=C1N(N(c2ccccc2)c2ccccc2)c2ccccc2C1(Cc1ccnc(F)c1)Cc1ccnc(F)c1", "melting point": "179 to 180 °C"}
{"compound": "COc1ccc(-c2cc(OCc3ccccc3)c(=O)n(C)c2-c2ccncc2)cc1", "melting point": "127 to 130 °C"}
{"compound": "COc1ccc(Nc2nc(NCCN)nc(NC3CCCCCC3)n2)cc1Cl", "melting point": "77 °C"}

Fill in: melting point of COC(=O)c1ccc(Oc2cc3c(cc2C(C)C)C(C)(C)CCC3(C)C)cc1 is ___ 115 to 116 °C

Fill in: melting point of Cc1cccc(C)c1NC(=O)CN1CCN(Cc2ccccc2)CC1C(C)O (centres undefined) is ___ 149 °C

Fill in: melting point of FC(F)(F)c1cc(OCc2ccc(-c3ccccc3-c3nnn[nH]3)cc2)c2c(n1)CCCC2 is ___ 218 to 219 °C

* * *

parameter_measured: melting point

Fill in: melting point of CC1(C)CC(NC(=O)CCC(C)(c2ccc(O)c(C(C)(C)C)c2)c2ccc(O)c(C(C)(C)C)c2)CC(C)(C)N1 is ___ 110 °C

* * *

parameter_measured: melting point

Consider the following illustrative entries.
{"compound": "CCCCCCCCC(c1ccccc1)S(=O)(=O)NC(=O)Nc1c(C(C)C)cccc1C(C)C (stereo not given)", "melting point": "145 to 146 °C"}
{"compound": "CCc1oc2ccccc2c1C(=O)N(Cc1ccccc1)Cc1ccc2c(Br)c(O)ccc2c1", "melting point": "125 to 130 °C"}
{"compound": "CCOC(=O)CNC(=O)c1cc(C(=O)c2ccccc2Cl)c(N)s1", "melting point": "216 to 218 °C"}
{"compound": "CC1(C)CN(CC2Cc3ccccc3O2)c2nc(-c3ccncc3)cc(=O)n2C1 (racemic)", "melting point": "147 to 149 °C"}

# input for lookup
Fill in: melting point of Cc1ccc(Oc2ccccc2-n2cnnn2)c(O)c1 is ___ 157 to 160 °C

* * *

parameter_measured: melting point

Fill in: melting point of Clc1ccc2c(N[C@@H]3CCC[C@H](Nc4ccnc5cc(Cl)ccc45)C3)ccnc2c1 is ___ > 250 °C

* * *

parameter_measured: melting point

Consider the following illustrative entries.
{"molecule": "Cc1c(C)c(N2CCN(c3ccc(C(C)O)cc3)CC2)c(C)c2c1OC(C)(C)C2 (stereo not given)", "result": "133 to 136 °C"}
{"molecule": "Cc1cc(-c2cc(Cl)ccc2Cl)n2ncc(C#N)c2n1", "result": "229 to 230 °C"}

Fill in: melting point of CC(C)c1cccc2c1CC(C(=O)O)SCC2=O (stereo not given) is ___ 157 to 158 °C

Fill in: melting point of O=C(O)c1cccc(OC(F)(F)C(F)Cl)c1 (stereo not given) is ___ 79 to 85 °C

Fill in: melting point of CC(=O)Nc1ncc(CCc2ccc(N)cc2)s1 is ___ 218 to 220 °C

Fill in: melting point of CCOC(=O)C=Cc1cc(OCc2ccccc2)ccc1-c1ccc(-c2cccnc2)c(C=O)c1 is ___ 126 to 128 °C

Fill in: melting point of CC(NC(=O)c1c(Cl)ccnc1Cl)c1ncc(C(F)(F)F)cc1Cl (single isomer, unassigned; (+)) is ___ 110 to 111 °C

Fill in: melting point of CC(C)C[C@@H](C(=O)O)N(C)C(=O)OC(C)(C)C is ___ 53 to 55 °C

Fill in: melting point of CN(C1=NCCO1)c1ccc(C(O)(C(F)(F)F)C(F)(F)F)cc1 is ___ 188 to 190 °C

Fill in: melting point of COC(=O)c1ccc(CC(C)NCC(O)c2ccc(O)c(CO)c2)cc1O (stereo not given) is ___ 81 to 83 °C
